This listing pairs molecules with measured EC50.
Tested on: HT-1080 cells
Assay method text: HT-1080 cell viability assay (ferroptosis induced by RSL3, Cell Titer-Glo)
Type: cell-based
Assay context: Homo sapiens, HT-1080, 20 h, ferroptosis inducer RSL3, 20 hours, ferroptosis inhibitory activity, Table 2

{"Molecule": "FC(F)(F)C1CCN(c2ccc(NC3CCOCC3)cc2)CC1 [Compound 17]", "EC50": "0.1 to 100 nM"}
{"Molecule": "CC(C)C1CCN(c2ccc(NC3CCC(N)CC3)nn2)CC1 (stereo not drawn) [Compound 411]", "EC50": "0.1 to 100 nM"}
{"Molecule": "NC(=O)C1CCC(Nc2ccc3cc(N4CCC(C(F)(F)F)CC4)ccc3c2)CC1 (stereo not drawn) [Compound 563]", "EC50": "0.1 to 100 nM"}
{"Molecule": "COCCOc1cc(NC2CCC(N)CC2)ccc1C(C)(C)C (stereo not drawn) [Compound 301A]", "EC50": "0.1 to 100 nM"}
{"Molecule": "CC1(C)CCC(c2ccc(NC3CCC(NC(=O)C4CNCCN4)CC3)cc2)CC1 (stereo not drawn) [Compound 274]", "EC50": "0.1 to 100 nM"}
{"Molecule": "NC1CCC(Nc2ccc(C3CC3)cc2)CC1 (stereo not drawn) [Compound 181]", "EC50": "100 to 1000 nM"}
{"Molecule": "CC(C)(C)c1ccc(NC2CCC(N)CC2)c(C#N)c1 (stereo not drawn) [Compound 187]", "EC50": "1000 to 10000 nM"}
{"Molecule": "CC(C)(C)c1ccc(NC2CCC(NCCCN)CC2)cc1 (stereo not drawn) [Compound 267]", "EC50": "1000 to 10000 nM"}
{"Molecule": "O=C1NC[C@H](C(=O)NC2CC(Nc3ccc(C4CCCCC4)cc3)C2)N1 (stereo partly drawn) [Compound 113]", "EC50": "100 to 1000 nM"}

----------
Listed below: pEC50 values for each entry.
Tested on: HT-1080 cells
Assay method text: HT-1080 cell viability assay (ferroptosis induced by RSL3, Cell Titer-Glo)
Assay type: cell-based
Assay context: Homo sapiens, HT-1080, 20 h, ferroptosis inducer RSL3, 20 hours, ferroptosis inhibitory activity, Table 2
pEC50: −log10 of the molar value.

{"Molecule": "CC1(C)CN(c2ccc(NC[C@H]3CC[C@H](N)CC3)cc2)CC(C)(C)O1", "pEC50": "7.00 to 10.00"}
{"Molecule": "CC(CN1CCCC1)Nc1ccc(C2CCC(C)(C)CC2)cc1 (stereo not drawn)", "pEC50": "7.00 to 10.00"}
{"Molecule": "NC1CC2(C1)CC(Nc1cnc(N3CCC(C(F)(F)F)CC3)nc1)C2 (stereo not drawn)", "pEC50": "7.00 to 10.00"}
{"Molecule": "CC(C)(C)c1ccc(NC2CCC(O)C(O)C2)cc1 (stereo not drawn)", "pEC50": "5.00 to 6.00"}
{"Molecule": "CC1CN(c2ccc3cc(NC4CC5(CC(N)C5)C4)ccc3n2)CC(C)N1CC(F)(F)F (stereo not drawn)", "pEC50": "7.00 to 10.00"}
{"Molecule": "CC(C)(C)c1ccc(NC2CC3CC(N)CC3C2)cc1 (stereo not drawn)", "pEC50": "7.00 to 10.00"}
{"Molecule": "COc1nc(N2C[C@@H](C)O[C@@H](C)C2)ccc1NC[C@H]1CC[C@H](N)CC1", "pEC50": "7.00 to 10.00"}
{"Molecule": "CC1(C)CCC(c2ccc(NC3CCC(NC(=O)[C@H]4CNC(=O)N4)CC3)cc2)CC1 (stereo partly drawn) [Compound 156C]", "pEC50": "7.00 to 10.00"}
{"Molecule": "NCCC1CCC(Nc2ccc3c(c2)CCC3)CC1 (stereo not drawn)", "pEC50": "7.00 to 10.00"}
{"Molecule": "CC(C)(C)c1cccc(NC2CCC(N)CC2)c1 (single isomer, unassigned) [Compound 153A]", "pEC50": "6.00 to 7.00"}
{"Molecule": "CCC1CCN(c2ccc(NC3CCC(N)CC3)c(C)c2)CC1 (stereo not drawn)", "pEC50": "7.00 to 10.00"}
{"Molecule": "CC(=O)NC1CCC(Nc2ccc(C3CCC(C)(C)CC3)cc2)CC1 (single isomer, unassigned) [Compound 157A]", "pEC50": "7.00 to 10.00"}
{"Molecule": "CC(C)(CN1CCCC1)Nc1ccc(C(C)(C)C)cc1", "pEC50": "5.00 to 6.00"}
{"Molecule": "Cc1cc(NC2CCC(N)CC2)ccc1C(C)(C)C (stereo not drawn)", "pEC50": "7.00 to 10.00"}
{"Molecule": "Cn1cc(NCC2CCC(Nc3ccc(C(C)(C)C)cc3)CC2)cn1 (stereo not drawn)", "pEC50": "7.00 to 10.00"}
{"Molecule": "O=C(O)C1CCC(Nc2ccc(N3CCC(C(F)(F)F)CC3)cc2)CC1 (stereo not drawn)", "pEC50": "5.00 to 6.00"}
{"Molecule": "CC(C)(C)c1ccc(NC2CCC(CCCN)CC2)cc1 (stereo not drawn)", "pEC50": "7.00 to 10.00"}
{"Molecule": "Cc1nc(N2CC[C@H]3OCCC[C@@H]3C2)ccc1NC1CC2(CC(N)C2)C1 (stereo partly drawn)", "pEC50": "7.00 to 10.00"}

----------
Tested on: HT-1080 cells
Assay method text: HT-1080 cell viability assay (ferroptosis induced by RSL3, Cell Titer-Glo)
Format: cell-based
Assay context: Homo sapiens, HT-1080, 20 h, ferroptosis inducer RSL3, 20 hours, ferroptosis inhibitory activity, Table 2

{"Compound": "CC(C)(C)c1ccc(NC2CC3(CC(N)C3)C2)cc1 (stereo not drawn)", "EC50": "0.1 to 100 nM"}
{"Compound": "O=C1NC[C@H](C(=O)NCC2CCC(Nc3ccc(N4CCC(C(F)(F)F)CC4)cc3)CC2)N1 (stereo partly drawn)", "EC50": "0.1 to 100 nM"}
{"Compound": "CC1(C)CCC(c2ccc(NCCNC(=O)[C@H]3CNC(=O)N3)cc2)CC1", "EC50": "100 to 1000 nM"}
{"Compound": "CC(C)(C)c1ccc(NC2CCC(N)(C(N)=O)CC2)cc1 (stereo not drawn)", "EC50": "1000 to 10000 nM"}
{"Compound": "CC(C)(C)c1ccc(NC2CCC(NCCN)CC2)cc1 (stereo not drawn)", "EC50": "0.1 to 100 nM"}
{"Compound": "CC1CC(Nc2ccc(C(C)(C)C)cc2)CCC1O (stereo not drawn) [Compound 233A]", "EC50": "100 to 1000 nM"}
{"Compound": "CN1CCC(Nc2ccc(C3CCC(C)(C)CC3)cc2)CC1=O (stereo not drawn)", "EC50": "100 to 1000 nM"}
{"Compound": "CC1(C)CCC(c2ccc(NC3CCNC(=O)C3)cc2)CC1 (stereo not drawn)", "EC50": "0.1 to 100 nM"}
{"Compound": "CCC(C)(C)c1ccc(NC2CC(CN)C2)cc1 (stereo not drawn)", "EC50": "0.1 to 100 nM"}
{"Compound": "CNC1CCC(Nc2ccc(C(C)(C)C)cc2)CC1 (stereo not drawn)", "EC50": "0.1 to 100 nM"}
{"Compound": "O=C1CC(C(=O)NCC2CCC(Nc3ccc(N4CCC(C(F)(F)F)CC4)cc3)CC2)CN1 (stereo not drawn)", "EC50": "0.1 to 100 nM"}
{"Compound": "Cc1c(NC2CCC(N)CC2)ccc(N2CCC(C(F)(F)F)CC2)c1F (stereo not drawn)", "EC50": "0.1 to 100 nM"}
{"Compound": "NC1CCC(Nc2ccc(C3CCOCC3)cc2)CC1 (stereo not drawn)", "EC50": "1000 to 10000 nM"}
{"Compound": "CC1CN(c2ccc(NC[C@H]3CC[C@H](N)CC3)cc2)CC(C)N1CC(F)(F)F (stereo partly drawn)", "EC50": "0.1 to 100 nM"}
{"Compound": "Cc1cc(N2CCCCC2)ccc1NC[C@H]1CC[C@H](N)CC1", "EC50": "0.1 to 100 nM"}
{"Compound": "Cc1nc(N2CC(C)N(C(=O)C(F)(F)F)C(C)C2)ccc1NC1CC2(CC(N)C2)C1 (stereo not drawn)", "EC50": "0.1 to 100 nM"}
{"Compound": "CC1(C)CCC(c2ccc(NC3CCC(CNC(=O)C4CNC(=O)C4)CC3)cc2)CC1 (single isomer, unassigned) [Compound 106A]", "EC50": "0.1 to 100 nM"}
{"Compound": "Cc1nc(C2CCC(C)(C)CC2)ccc1NC1CCC(CN)CC1 (stereo not drawn)", "EC50": "100 to 1000 nM"}
{"Compound": "CNC(=O)C1CCC(Nc2ccc(N3CCC(C(F)(F)F)CC3)cc2)CC1 (stereo not drawn)", "EC50": "0.1 to 100 nM"}
{"Compound": "CC1(C)CCC(c2ccc(NCCCN3CCCC3)cc2)CC1", "EC50": "0.1 to 100 nM"}
{"Compound": "N[C@H]1CC[C@H](CNc2ccc(C3CCN(CC(F)(F)F)CC3)cc2)CC1", "EC50": "0.1 to 100 nM"}
{"Compound": "CC1(N)CCC(Nc2ccc(N3CCC(C(F)(F)F)CC3)cc2)CC1 (stereo not drawn)", "EC50": "0.1 to 100 nM"}
{"Compound": "Cc1nc(N2CC3CC(C2)O3)ccc1NC1CC2(CC(N)C2)C1 (stereo not drawn)", "EC50": "100 to 1000 nM"}
{"Compound": "NC1CC2(C1)CC(Nc1ccc(N3CCC(C(F)(F)F)CC3)cc1F)C2 (stereo not drawn)", "EC50": "0.1 to 100 nM"}
{"Compound": "COc1cc(N2C[C@@H](C)O[C@@H](C)C2)ncc1NC1CC2(CC(N)C2)C1 (stereo partly drawn)", "EC50": "1000 to 10000 nM"}
{"Compound": "NC1CC(Nc2ccc(C3CCCCC3)cc2)C1 (stereo not drawn)", "EC50": "0.1 to 100 nM"}
{"Compound": "Cc1cc(N2C[C@@H](C)O[C@@H](C)C2)ncc1NC1CC2(CC(N)C2)C1 (stereo partly drawn)", "EC50": "100 to 1000 nM"}
{"Compound": "Cc1nc(N2C[C@@H](C)N(CC(F)(F)F)[C@@H](C)C2)ccc1NC1CCC(N)CC1 (stereo partly drawn)", "EC50": "0.1 to 100 nM"}
{"Compound": "Cc1nc(N2C3COCC2C3)ccc1NC1CC2(CC(N)C2)C1 (stereo not drawn)", "EC50": "1000 to 10000 nM"}
{"Compound": "CC(C)C1CCN(c2ncc(NC3CC4(CC(O)C4)C3)cn2)CC1 (stereo not drawn)", "EC50": "0.1 to 100 nM"}
{"Compound": "N[C@H]1CC[C@H](CNc2ccc3c(c2)CCCC3)CC1", "EC50": "0.1 to 100 nM"}
{"Compound": "NNC(=O)C1CC2(CC(Nc3cnc(N4CCC(C(F)(F)F)CC4)nc3)C2)C1 (stereo not drawn)", "EC50": "0.1 to 100 nM"}
{"Compound": "NC1CCC(Nc2ccc(C3CCC(C(F)(F)F)CC3)cc2)CC1 (stereo not drawn)", "EC50": "0.1 to 100 nM"}
{"Compound": "CN(C)C(=O)C1CCC(Nc2ccc(C3CCC(C)(C)CC3)cc2)CC1 (stereo not drawn)", "EC50": "0.1 to 100 nM"}
{"Compound": "COCCCCOc1cc(NC2CCC(N)C2)ccc1C(C)(C)C (stereo not drawn)", "EC50": "0.1 to 100 nM"}
{"Compound": "Cc1cc(NC[C@H]2CC[C@H](N)CC2)cc(F)c1N1CC(C)OC(C)C1 (stereo partly drawn)", "EC50": "0.1 to 100 nM"}
